Subject Of Test: T1, MPP2, Q14168
T1 sequence (Q14168 180-250, limits assumed, looked up): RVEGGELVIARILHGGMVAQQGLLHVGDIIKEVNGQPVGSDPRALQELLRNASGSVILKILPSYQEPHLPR
Assay Method Text: holdup assay
Set-up: key: below the threshold = too weak to quantify, mostly under pKd 3.1 to 4
Condition Details: plain residues with an end cap or a label only (N-terminal biotin on a linker: ado-ado)
Measurement Type: pKd

- QKNKDKEYYV [NRXN3_rs746444206, Q9Y4C0]: 4.12
- GFGEERESIL [KIDINS220, Q9ULH0]: below the threshold
- FVHPILQSAV [PRKCA, P17252]: below the threshold
- TETASVCTKV [SLC23A1, Q9UHI7]: below the threshold
